System: Wolbachia pipientis
Method: Anti-Wolbachia Cell-Based Screen
Assay type: functional
Parameters: scale not given: in the data most compounds retested in dose-response had high values
Settings: 5 µM
The whole screen tested about 48,000 compounds, of which about 13,000 (27%) showed an effect of 50% or more. Some of the results follow.
Attribute Measured: Percent Effect (%)
Expressed in %, but write only the number.

Hi! What's the reported Percent Effect for Cc1ccc(C(=O)Nc2ccc3c(c2)N(C)CCN(C)C3)c(=O)[nH]1 on Wolbachia pipientis?
112.4

Hi! What's the reported Percent Effect for Cc1ccc(C(=O)NC(CN2CCCC2=O)c2ccccc2)c(=O)[nH]1 (stereo unspecified) on Wolbachia pipientis?
-15.69

Hi! What's the reported Percent Effect for Cc1ccc(C(=O)NCC2CCN(C)c3ccccc32)c(=O)[nH]1 (stereo unspecified) on Wolbachia pipientis?
-6.721

Hi! What's the reported Percent Effect for CCc1ccc(C(=O)NC2CCN(c3cnn(C)c3)C2=O)o1 (stereo unspecified) on Wolbachia pipientis?
0.5002

Hi! What's the reported Percent Effect for CCc1ccc(C(=O)Nc2ccc3c(c2)N(C)CCN(C)C3)o1 on Wolbachia pipientis?
68.84

Hi! What's the reported Percent Effect for Cc1ccc(C(=O)N2CCC3(CCC(=O)N(CC(N)=O)C3)CC2)c(O)c1 on Wolbachia pipientis?
-8.417

Hi! What's the reported Percent Effect for CN(CC(=O)NC1CCOCC1)C1CCCN(c2cccnn2)C1 (stereo unspecified) on Wolbachia pipientis?
137.1

Hi! What's the reported Percent Effect for O=C(O)CSc1nnc(-c2ccn[nH]2)n1-c1cccc(C(F)(F)F)c1 on Wolbachia pipientis?
-2.54

Hi! What's the reported Percent Effect for CCc1ccc(C(=O)Nc2cc(N3CCNC3=O)ccc2Cl)o1 on Wolbachia pipientis?
2.04

Hi! What's the reported Percent Effect for CCOCC(=O)NCC(Cc1cccc(F)c1)n1cccc1 (stereo unspecified) on Wolbachia pipientis?
6.887

Hi! What's the reported Percent Effect for Cc1cc(C(=O)NC2CCCN(c3ccccc3)C2=O)on1 (stereo unspecified) on Wolbachia pipientis?
-7.232

====

System: Wolbachia pipientis
Method: Anti-Wolbachia Cell-Based Screen
Type: functional
Set-up: scale not given: in the data most compounds retested in dose-response had high values
Settings: 5 µM
The whole screen tested about 48,000 compounds, of which about 13,000 (27%) showed an effect of 50% or more. Some of the results follow.
For each record, write down the corresponding Percent Effect.
Expressed in %, but write only the number.

Give its Percent Effect value. Item: FC(F)(F)Cc1noc(CN2CCCC2c2noc(C3CC3)n2)n1 (stereo not drawn)
0.1706

Give its Percent Effect value. Item: CN(CC(=O)N1CC(C)(C)[C@@](C)(O)C1)Cc1ccncc1
-6.458

Give its Percent Effect value. Item: Cc1cnc(N2CCC3(CC2)CC3CNC(=O)N(C)C)nc1 (stereo not drawn)
-2.686

Give its Percent Effect value. Item: Cc1oc(C)c(C(=O)NCc2cccc(C(N)=O)c2)c1C
95.24

Give its Percent Effect value. Item: CSCC[C@@H](CO)Nc1ccc(-c2nc(-c3ccccc3C)no2)cn1
8.283

Give its Percent Effect value. Item: COc1ccc(CN2CCC[C@@H]3CN(C(=O)c4ccco4)C[C@@H]32)cc1.O=C(O)C(F)(F)F
6.144

Give its Percent Effect value. Item: CN(C)C(=O)c1cn[nH]c1C1(C)CCN(c2ncccn2)CC1
98.94

Give its Percent Effect value. Item: CC(c1cccnc1)N1CCN(CCc2ccccn2)CC1 (stereo not drawn)
-1.072

Give its Percent Effect value. Item: COc1ccc(Nc2ncccc2C#N)cc1N1CCCC1=O
9.755

Give its Percent Effect value. Item: CCc1nc(CN2CCN(C(=O)c3cc(C)no3)CC2)cs1
6.247

Give its Percent Effect value. Item: CC1(c2[nH]ncc2C(N)=O)CCN(c2ncccn2)CC1
105.4

Give its Percent Effect value. Item: NC(=O)N1CCC2(CC1)CN(c1ncccn1)CCO2
-107.3

Give its Percent Effect value. Item: Cc1nn(CC(=O)Nc2cccc(F)c2)c(N)c1C#N
-11.77

Give its Percent Effect value. Item: CCN(CC)c1ccc(CNC(=O)c2ccccn2)cn1
19.52

Give its Percent Effect value. Item: CCN1CCNC(=O)C12CCN(S(=O)(=O)c1ccccc1)CC2
-28.29

Give its Percent Effect value. Item: Cc1oc(C)c(C(=O)NCc2ccccc2S(=O)(=O)N(C)C)c1C
-1.431

Give its Percent Effect value. Item: FC1(F)CCN(Cc2ccccn2)CC12CCN(c1ncccn1)C2.O=C(O)C(F)(F)F (stereo not drawn)
99.55

Give its Percent Effect value. Item: Cc1cc(C(=O)N2CCN(c3nc4c(C(C)C)cccc4s3)CC2)on1
114.6

Give its Percent Effect value. Item: Cc1ccc(Oc2ncccc2CNS(=O)(=O)N2CCOCC2)cn1
3.348

Give its Percent Effect value. Item: Cc1cccc(C(=O)NCc2ccc(CS(N)(=O)=O)cc2)n1
93.95

Give its Percent Effect value. Item: Cc1cc(C(=O)N2CCN(c3nc4c(F)cccc4s3)CC2)no1
123.7

Give its Percent Effect value. Item: Cc1oc(C)c(C(=O)NCc2cccc(NC(=O)CN(C)C)c2)c1C
14.93

Give its Percent Effect value. Item: CNS(=O)(=O)Cc1ccc(CNC(=O)c2ccccn2)cc1
102.4

====

System: Wolbachia pipientis
Method: Anti-Wolbachia Cell-Based Screen
Assay type: functional
Parameters: scale not given: in the data most compounds retested in dose-response had high values
Settings: 5 µM
About 13,000 (27%) of roughly 48,000 compounds showed an effect of 50% or more. This is one part of the list.
For each record, write down the corresponding Percent Effect.

Give its Percent Effect value. Item: Cc1ccc(C)c(-n2ncc(C(=O)NCC3COC(C)(C)O3)c2N)c1 (configuration not stated)
185.5%

Give its Percent Effect value. Item: NC(=O)c1cnn2c1NCC(CNCC1(c3ccccc3)CCCC1)C2 (configuration not stated)
95.13%

Give its Percent Effect value. Item: CC1(C)OCC(CNC(=O)c2cnn(-c3cc(Cl)ccc3Cl)c2N)O1 (configuration not stated)
-0.3036%

Give its Percent Effect value. Item: NC(=O)c1cnn2c1NCC(CNC1(c3ccccc3)CCC1)C2 (configuration not stated)
91.1%

Give its Percent Effect value. Item: CC1(C)OCC(CNC(=O)c2cnn(-c3ccc(Cl)cc3)c2N)O1 (configuration not stated)
-2.312%

Give its Percent Effect value. Item: O=C(NCc1ccccn1)[C@]12COC[C@H]1CN(Cc1cccnc1)C2.O=C(O)C(F)(F)F.O=C(O)C(F)(F)F.O=C(O)C(F)(F)F
99.25%

Give its Percent Effect value. Item: c1ccc(Cn2cccn2)c(CNCC2CNc3ccnn3C2)c1 (configuration not stated)
2.44%

Give its Percent Effect value. Item: C=C(C)CN1CCC(c2n[nH]c(C3CC3)n2)CC1
-34.27%

Give its Percent Effect value. Item: CCNC(=O)NC(=O)CNC(C)(CC)c1nccs1 (configuration not stated)
7.409%

Give its Percent Effect value. Item: Cc1cnn(C2CN(CC(=O)NCC3(c4ccccc4)CCC3)C2)c1
-4.16%

Give its Percent Effect value. Item: CC1(C)OCC(CNC(=O)c2cnn(-c3cccc(Cl)c3Cl)c2N)O1 (configuration not stated)
190.2%

Give its Percent Effect value. Item: Cc1cc(Cl)ccc1-n1ncc(C(=O)NCC2COC(C)(C)O2)c1N (configuration not stated)
154.2%

Give its Percent Effect value. Item: NC(=O)c1cnn2c1NCC(CNCCCOc1ccccc1F)C2 (configuration not stated)
-5.67%

Give its Percent Effect value. Item: c1ccc(C2(NCC3CNc4ccnn4C3)CCC2)cc1 (configuration not stated)
81.61%

Give its Percent Effect value. Item: NC(=O)c1cnn2c1NCC(CNCCc1ccco1)C2 (configuration not stated)
-4.106%

Give its Percent Effect value. Item: COc1ccc(-n2ncc(C(=O)NCC3COC(C)(C)O3)c2N)cc1 (configuration not stated)
-3.479%

Give its Percent Effect value. Item: Cn1c(CC2CCS(=O)(=O)C2)nnc1SCCOc1ccccc1F (configuration not stated)
1.517%

Give its Percent Effect value. Item: O=S(=O)(N1CCN(CC2CC2)CC1)N1CCCC1c1ccco1 (configuration not stated)
8.161%

Give its Percent Effect value. Item: Cc1ncsc1CN1C[C@@H]2COC[C@]2(C(=O)NCc2cccnc2)C1.O=C(O)C(F)(F)F.O=C(O)C(F)(F)F
4.251%

Give its Percent Effect value. Item: Cn1cnc2c1CCN(Cc1nc(COc3ccc(F)cc3)no1)C2
1.894%

Give its Percent Effect value. Item: Cn1cc(C(=O)NCc2ccc(N3CCNC(=O)C3)c(F)c2)cn1
-29.09%

Give its Percent Effect value. Item: Cc1ccc(C(=O)Nc2ccc(N3CCCC3)cn2)cc1F
-12.84%

====

For each record, write down the corresponding Percent Effect.
System: Wolbachia pipientis
Method: Anti-Wolbachia Cell-Based Screen
Format: functional
Parameters: scale not given: in the data most compounds retested in dose-response had high values
Settings: 5 µM
Screen size: about 48,000 compounds; about 13,000 (27%) showed an effect of 50% or more. Some of the results follow.
Expressed in %, but write only the number.

Give its Percent Effect value. Item: COCCN1CC(C(=O)N(C)Cc2csc(C)n2)CC1=O (stereo unspecified)
9.291

Give its Percent Effect value. Item: Cc1nc(N2CCN(S(C)(=O)=O)CC2)cc(-n2cnc(C)c2C)n1
-12.66

Give its Percent Effect value. Item: Cc1cnn(CCNCc2nccn2Cc2ccccc2)c1
6.467

Give its Percent Effect value. Item: COc1ccccc1CNC(=O)C1=NN(c2ccc(C)cc2)C(=O)CN1
1.348

Give its Percent Effect value. Item: CC(=O)Nc1ccc(CNC2CCCSC2)cc1 (stereo unspecified)
-9.842

Give its Percent Effect value. Item: Cc1cccc(CNCC2COC3(CCCC3)O2)c1C (stereo unspecified)
-2.633
